Can you tell me GI50 for the items I'm about to list?
Test system: tumorigenic breast cancer cells BT-474
Experimental protocol: Growth inhibition assay (CyQUANT Cell Proliferation Assay) in BT-474 cells
Type: cell-based
Condition summary: Homo sapiens, 48 h, CyQUANT, read-out: Cell Growth Inibition GI50
Structures can show the parent of a compound that is named as a salt.
Numbers only, in µM.

Please review the entries below; each comes with its answer.
## Task Entry under review: COc1cccc(C2(NCc3ccc(O)c(CN4CCN(C)CC4)c3)CCCC2)c1 [Example 27, trihydrochloride] . Reported GI50?
## Result 12

## Task Also, CN1CCC(Cc2cccc(CN(C)C3(c4ccccc4F)CCCC3)c2)CC1 [Example 19, dihydrochloride] please.
## Result 5

## Task Please do the same for CN1CCN(Cc2cc(CNC3(c4ccccc4F)CCC(F)(F)CC3)ccc2O)CC1 [Example 17, trihydrochloride] as well.
## Result 18

Can you give me GI50 for all of these, one by one?
1. CN1CCN(Cc2cc(CNC3(c4ccc(F)cc4)CCCC3)ccc2O)CC1 [Example 23, trihydrochloride]
2. CN1CCN(Cc2cc(CNC3(c4ccccc4F)CCC3)ccc2O)CC1 [Example 33, trihydrochloride]
3. CN1CCN(Cc2cc(CNC3(c4cccc(F)c4)CCCC3)ccc2O)CC1 [Example 22, trihydrochloride]
4. Oc1ccc(CNC2(c3ccccc3F)CCCC2)cc1CN1CCN(Cc2ccccc2)CC1 [Example 12, trihydrochloride]

## Result
10
30
14
23
